# target_desc: mouse SH2B SH2 domain (mouse, UniProt Q91ZM2 527-625)
# test_details: SPR
Where no end group is shown, it is not given here. [ ]: non-standard residue; d: D form. pY = N[C@@H](Cc1ccc(OP(=O)(O)O)cc1)C(=O)O
observed_property: pKd
Give only the number. pKd is defined as minus log10 of concentration in molar units.

Query string: Fill in the blank: the reported pKd of FTPD[pY]ELLTEND (also: biotin, site not given here) [biotinylated JAK2 pY813 peptide] is ____.
Result string: 6.97

These entries and their values trace back to paper PMC8528861.
